# ASSAY TARGET: c-Met/Fc (UniProt P08581)
# Sequence (P08581 25-932): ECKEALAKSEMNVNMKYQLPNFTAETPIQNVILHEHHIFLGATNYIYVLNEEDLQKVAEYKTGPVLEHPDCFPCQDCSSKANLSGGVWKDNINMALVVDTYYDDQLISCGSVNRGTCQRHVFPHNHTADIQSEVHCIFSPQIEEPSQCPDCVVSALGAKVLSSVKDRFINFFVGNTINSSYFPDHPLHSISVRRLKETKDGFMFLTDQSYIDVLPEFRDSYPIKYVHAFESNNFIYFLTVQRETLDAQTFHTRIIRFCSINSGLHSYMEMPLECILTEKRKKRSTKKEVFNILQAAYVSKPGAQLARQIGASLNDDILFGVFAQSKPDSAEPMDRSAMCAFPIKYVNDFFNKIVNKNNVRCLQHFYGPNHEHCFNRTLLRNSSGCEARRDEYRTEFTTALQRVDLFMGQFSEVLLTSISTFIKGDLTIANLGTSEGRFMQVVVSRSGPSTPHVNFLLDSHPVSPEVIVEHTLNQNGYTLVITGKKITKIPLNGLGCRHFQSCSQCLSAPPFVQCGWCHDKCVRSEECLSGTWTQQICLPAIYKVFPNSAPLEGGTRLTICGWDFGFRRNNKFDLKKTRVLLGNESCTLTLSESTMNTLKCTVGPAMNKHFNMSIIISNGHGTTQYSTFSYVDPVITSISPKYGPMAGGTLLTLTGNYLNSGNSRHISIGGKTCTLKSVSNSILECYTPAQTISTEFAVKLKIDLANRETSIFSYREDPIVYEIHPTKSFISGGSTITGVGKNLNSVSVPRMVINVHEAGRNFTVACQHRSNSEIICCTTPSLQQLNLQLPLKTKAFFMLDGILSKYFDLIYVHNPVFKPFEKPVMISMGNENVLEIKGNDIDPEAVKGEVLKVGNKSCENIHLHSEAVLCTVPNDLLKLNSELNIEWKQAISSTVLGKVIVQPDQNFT
# MEASUREMENT DESCRIPTION: filter
# CONDITION CONTEXT: 2'-F pyrimidines; specificity control
OBSERVABLE: Kd (nM)
Give bare numbers, in nM.

Please report the measured Kd for GGGAGGACGAUGCGGNNNNNNNNNNNNNNNNNNNNNNNNNNNNNNNNNNNNNNNNCAGACGACUCGCCCGA [40N7 starting random library (round 0)] tested on c-Met/Fc (UniProt P08581).
58

###

For each entry below, report its pKd value.
# ASSAY TARGET: VEGFR1 (Flt-1) extracellular domain/Fc (UniProt P17948)
# Sequence (P17948 27-758): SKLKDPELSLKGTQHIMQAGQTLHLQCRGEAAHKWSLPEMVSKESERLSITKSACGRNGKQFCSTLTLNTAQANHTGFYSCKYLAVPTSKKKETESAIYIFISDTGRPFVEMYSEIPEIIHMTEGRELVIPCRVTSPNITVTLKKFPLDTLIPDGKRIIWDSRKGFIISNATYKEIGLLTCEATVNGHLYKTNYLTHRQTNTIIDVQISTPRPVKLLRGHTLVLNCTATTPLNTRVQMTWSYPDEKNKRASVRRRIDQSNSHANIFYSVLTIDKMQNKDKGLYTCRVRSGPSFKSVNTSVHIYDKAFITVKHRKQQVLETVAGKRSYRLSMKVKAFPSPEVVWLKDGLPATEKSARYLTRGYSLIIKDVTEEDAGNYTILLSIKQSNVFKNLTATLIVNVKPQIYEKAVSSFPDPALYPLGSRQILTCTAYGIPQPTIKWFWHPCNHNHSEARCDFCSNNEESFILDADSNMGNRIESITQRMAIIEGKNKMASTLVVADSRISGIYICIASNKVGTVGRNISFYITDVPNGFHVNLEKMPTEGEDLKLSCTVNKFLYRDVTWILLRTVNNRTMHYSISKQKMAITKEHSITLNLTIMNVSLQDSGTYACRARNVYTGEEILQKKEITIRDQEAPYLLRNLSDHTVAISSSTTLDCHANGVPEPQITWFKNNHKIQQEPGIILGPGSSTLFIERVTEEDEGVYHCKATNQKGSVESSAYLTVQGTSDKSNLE
# MEASUREMENT DESCRIPTION: filter
# CONDITION CONTEXT: 2'-F pyrimidines; HBSMC, 37 C
Numbers only, as −log10 of the molar value.

GGGAGGACGAUGCGGNNNNNNNNNNNNNNNNNNNNNNNNNNNNNNNNNNNNNNNNCAGACGACUCGCCCGA [Flt-1 SELEX round 5 pool] = 10.03

// switching to the query sequence
Recall and state the measured pKd for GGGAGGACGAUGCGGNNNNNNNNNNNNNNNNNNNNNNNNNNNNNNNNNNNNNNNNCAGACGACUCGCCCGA [40N7 starting random library (round 0)] .
9.70

###

# ASSAY TARGET: VEGFR2 (KDR) extracellular domain/Fc (Homo sapiens)
# MEASUREMENT DESCRIPTION: filter
# CONDITION CONTEXT: 2'-F pyrimidines
OBSERVABLE: Kd (nM)
Give bare numbers, in nM.

Recall and state the measured Kd for GGGAGGACGAUGCGGACANAUAACACAGGGCCUGCUUGGAUCACACUGAUUGCGCCCAGACGACUCGCCCGA [K17] .
0.24

###

# ASSAY TARGET: VEGFR2 (KDR) extracellular domain/Fc (Homo sapiens) (UniProt P35968)
# Sequence (P35968 20-764): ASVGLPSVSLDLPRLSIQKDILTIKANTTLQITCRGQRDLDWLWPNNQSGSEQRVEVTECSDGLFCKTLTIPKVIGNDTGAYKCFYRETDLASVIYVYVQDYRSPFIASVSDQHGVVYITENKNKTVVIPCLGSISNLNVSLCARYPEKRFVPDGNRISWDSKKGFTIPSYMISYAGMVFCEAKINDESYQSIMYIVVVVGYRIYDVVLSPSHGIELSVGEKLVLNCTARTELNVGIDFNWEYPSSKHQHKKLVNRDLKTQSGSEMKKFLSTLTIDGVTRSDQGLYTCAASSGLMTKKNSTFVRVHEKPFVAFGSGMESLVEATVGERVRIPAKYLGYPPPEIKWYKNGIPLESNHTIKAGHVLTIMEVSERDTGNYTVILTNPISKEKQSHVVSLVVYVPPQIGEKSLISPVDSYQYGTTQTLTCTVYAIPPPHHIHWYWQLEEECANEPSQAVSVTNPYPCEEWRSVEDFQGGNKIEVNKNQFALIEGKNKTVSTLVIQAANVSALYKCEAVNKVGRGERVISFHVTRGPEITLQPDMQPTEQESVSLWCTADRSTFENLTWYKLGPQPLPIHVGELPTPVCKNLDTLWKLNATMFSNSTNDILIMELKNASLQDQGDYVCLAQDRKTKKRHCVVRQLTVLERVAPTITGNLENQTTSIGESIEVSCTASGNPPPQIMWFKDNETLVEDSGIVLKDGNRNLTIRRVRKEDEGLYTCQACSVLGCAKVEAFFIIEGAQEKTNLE
# MEASUREMENT DESCRIPTION: filter
# CONDITION CONTEXT: 2'-F pyrimidines; HBSMC (Mg, Ca), 37 C
OBSERVABLE: Kd (nM)
Give bare numbers, in nM.

Recall and state the measured Kd for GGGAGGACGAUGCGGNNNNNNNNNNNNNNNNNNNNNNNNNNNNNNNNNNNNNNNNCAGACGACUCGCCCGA [KDR SELEX round 6 pool] .
0.44

###

# ASSAY TARGET: c-Met/Fc (UniProt P08581)
# MEASUREMENT DESCRIPTION: filter
# CONDITION CONTEXT: 2'-F pyrimidines; specificity control for Fc binding
OBSERVABLE: Kd (µM)
Answers are plain numbers, in µM.

Recall and state the measured Kd for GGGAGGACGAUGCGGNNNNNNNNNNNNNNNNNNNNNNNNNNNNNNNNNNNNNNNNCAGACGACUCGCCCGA [KDR SELEX round 5 pool] .
0.074

###

# ASSAY TARGET: VEGF receptors on HUVEC (VEGFR2/KDR) (Homo sapiens) (UniProt P35968)
# Sequence (P35968 20-1356): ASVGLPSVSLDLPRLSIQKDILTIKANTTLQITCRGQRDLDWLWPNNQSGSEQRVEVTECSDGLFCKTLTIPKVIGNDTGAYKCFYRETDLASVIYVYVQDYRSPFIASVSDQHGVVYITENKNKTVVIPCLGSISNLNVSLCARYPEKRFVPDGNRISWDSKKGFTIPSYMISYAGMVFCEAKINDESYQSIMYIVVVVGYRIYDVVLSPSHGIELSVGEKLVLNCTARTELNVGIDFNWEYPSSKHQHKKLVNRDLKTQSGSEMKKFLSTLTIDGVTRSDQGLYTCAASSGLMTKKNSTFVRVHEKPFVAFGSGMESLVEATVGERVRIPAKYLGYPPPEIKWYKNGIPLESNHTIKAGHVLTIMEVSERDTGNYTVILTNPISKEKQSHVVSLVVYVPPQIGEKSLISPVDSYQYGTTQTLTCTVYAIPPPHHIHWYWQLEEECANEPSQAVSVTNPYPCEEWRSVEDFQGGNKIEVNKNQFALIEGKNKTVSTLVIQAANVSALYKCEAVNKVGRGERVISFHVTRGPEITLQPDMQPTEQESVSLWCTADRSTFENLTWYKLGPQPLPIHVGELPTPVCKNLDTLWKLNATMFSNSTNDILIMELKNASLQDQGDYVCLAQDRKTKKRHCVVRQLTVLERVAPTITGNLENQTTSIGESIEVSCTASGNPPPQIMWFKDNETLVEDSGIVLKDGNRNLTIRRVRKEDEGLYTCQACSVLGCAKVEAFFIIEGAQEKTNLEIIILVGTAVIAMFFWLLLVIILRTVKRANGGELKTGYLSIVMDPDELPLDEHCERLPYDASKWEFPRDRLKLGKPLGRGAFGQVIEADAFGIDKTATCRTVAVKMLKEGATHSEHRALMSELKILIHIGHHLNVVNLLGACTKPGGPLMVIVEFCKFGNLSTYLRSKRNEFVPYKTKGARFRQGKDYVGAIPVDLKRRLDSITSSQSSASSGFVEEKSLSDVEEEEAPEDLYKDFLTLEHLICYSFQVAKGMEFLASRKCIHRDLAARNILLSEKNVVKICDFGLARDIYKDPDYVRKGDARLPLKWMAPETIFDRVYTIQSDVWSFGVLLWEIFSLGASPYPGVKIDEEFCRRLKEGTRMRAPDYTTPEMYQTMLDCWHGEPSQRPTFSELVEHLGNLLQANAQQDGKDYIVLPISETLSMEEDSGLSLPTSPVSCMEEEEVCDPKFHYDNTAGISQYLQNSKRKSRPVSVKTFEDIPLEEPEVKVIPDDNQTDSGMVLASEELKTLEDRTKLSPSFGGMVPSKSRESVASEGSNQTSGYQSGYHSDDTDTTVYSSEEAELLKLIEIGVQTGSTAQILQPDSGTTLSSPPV
# MEASUREMENT DESCRIPTION: competition
# CONDITION CONTEXT: 2'-F pyrimidines; inhibition of 125I-VEGF-165 binding to HUVEC
OBSERVABLE: pIC50
One number for each entry, as −log10 of the molar value.

Recall and state the measured pIC50 for GGGAGGACGAUGCGGACANAUAACACAGGGCCUGCUUGGAUCACACUGAUUGCGCCCAGACGACUCGCCCGA [K17] .
6.79
